- Tested on: H929 (multiple myeloma)
- protocolText: Cell proliferation inhibition, Cell Titer-Glo, H929
- Format: cell-based
- assayConditions: Homo sapiens, NCI-H929; cell proliferation assay, H929 cells
pIC50: −log10 of the molar value.
# pIC50 values compiled below
recordedEndpoint: pIC50

>  <molecule>
COc1ccccc1OCC(O)CNc1cc[nH]c(=O)c1-c1nc2cc3c(cc2[nH]1)C(=O)N(C1CCN(C)CC1)C3=O (stereo not shown) [compound 41]

>  <targetOrSystem>
H929 (multiple myeloma)

>  <reported>
4.82 to 5.30

$$$$
>  <molecule>
O=C1c2cc3nc(-c4c(NC[C@@H](O)COc5c(F)ccc(Cl)c5F)cc[nH]c4=O)[nH]c3cc2C(=O)N1C1CCN(CCO)CC1 [compound 125]

>  <targetOrSystem>
H929 (multiple myeloma)

>  <reported>
< 4.82

$$$$
>  <molecule>
COc1ccc(OCC(O)CNc2cc[nH]c(=O)c2-c2nc3cc4c(cc3[nH]2)C(=O)N(C2CCN(C)CC2)C4=O)cc1 (stereo not shown) [compound 42]

>  <targetOrSystem>
H929 (multiple myeloma)

>  <reported>
4.82 to 5.30

$$$$
>  <molecule>
CN1CCC(N2Cc3cc4nc(-c5c(NC[C@@H](O)COc6cc7c(cc6Cl)OCO7)cc[nH]c5=O)[nH]c4cc3C2=O)CC1 [compound 157]

>  <targetOrSystem>
H929 (multiple myeloma)

>  <reported>
< 4.82

$$$$

====

# pIC50 values compiled below
- targetOrSystem: Jak2 (Homo sapiens)
- Sequence (O60674 849-1124 limits assumed, species assumed): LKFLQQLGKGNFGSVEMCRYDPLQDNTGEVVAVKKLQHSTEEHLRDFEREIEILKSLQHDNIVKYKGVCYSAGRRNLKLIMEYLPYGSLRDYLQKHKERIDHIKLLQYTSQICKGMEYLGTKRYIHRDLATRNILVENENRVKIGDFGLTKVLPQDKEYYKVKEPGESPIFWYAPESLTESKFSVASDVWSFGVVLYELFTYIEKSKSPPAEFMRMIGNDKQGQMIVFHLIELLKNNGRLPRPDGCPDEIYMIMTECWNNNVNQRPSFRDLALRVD
pIC50: −log10 of the molar value.

>  <compound>
Cc1ccc(OC[C@H](O)CNc2cc[nH]c(=O)c2-c2nc3cc4c(cc3[nH]2)C(=O)N(C2CCN(C)CC2)C4=O)c(C(C)(C)C)c1 [compound 80]

>  <pIC50>
4.82 to 5.30

$$$$
>  <compound>
CN1CCC(N2C(=O)c3cc4nc(-c5c(NCC(O)COc6ccc(C(C)(C)C)cc6)cc[nH]c5=O)[nH]c4cc3C2=O)CC1 (stereo not drawn) [compound 14]

>  <pIC50>
5.30 to 6.30

$$$$
>  <compound>
COc1cc(C)ccc1OC[C@H](O)CNc1ccnc(O)c1-c1nc2cc3c(cc2[nH]1)C(=O)N(C1CCN(C)CC1)C3=O [compound 54]

>  <pIC50>
< 4.82

$$$$

Recorded values, source patent US8063225B2.
